FYI, the data here is from PubChem BioAssay (NCI).

Tested on: OVCAR-4 ovarian
EXPERIMENTAL DETAILS: NCI tumour cell line growth inhibition, 48 h

COMPOUND: COc1ccc(S(=O)(=O)NC2=NCCN2C(=S)SN2CCn3c2nsc3=S)cc1OC
GI50: 16 µM

COMPOUND: COc1ccc(C2=CC(c3ccc(Oc4ccnc5cc(Cl)ccc45)c(OC)c3)c3c(nc(OC)[nH]c3=O)N2)cc1 (stereo not drawn)
GI50: 6.69 µM

COMPOUND: COc1ccccc1-c1ccc2nc(NC(=O)Nc3cc(C(F)(F)F)cc(C(F)(F)F)c3)sc2c1
GI50: 2.12 µM

* * *

System: A549 NSCLC
EXPERIMENTAL DETAILS: NCI tumour cell line growth inhibition, 48 h
Overview of recorded TGI for various compounds

COMPOUND: COc1cc([N+](=O)[O-])c(S(=O)(=O)O)cc1N
SYSTEM: A549 NSCLC
TGI: > 100 µM

COMPOUND: OC12CC3c4ccccc4NC3C3Oc4cccc5c4C31CCN(CC1CC1)C2C5 (centres undefined)
SYSTEM: A549 NSCLC
TGI: 38.3 µM

COMPOUND: CNS(=O)(=O)c1ccccc1C(=N)c1ccccc1
SYSTEM: A549 NSCLC
TGI: > 100 µM

COMPOUND: CCN(CC)CCSc1n[nH]c(-c2c[nH]c3nc(C)ccc3c2=O)n1
SYSTEM: A549 NSCLC
TGI: > 100 µM

COMPOUND: Cc1coc2c1CC1OC1(C)CCC1OC1(C)C2 (centres undefined)
SYSTEM: A549 NSCLC
TGI: > 100 µM

COMPOUND: C=C1C(=O)OC2/C=C(\C)C(=O)CC3OC(C)(C)OC3(C)CC(OC(=O)/C(C)=C/C)C12 (centres undefined)
SYSTEM: A549 NSCLC
TGI: > 100 µM

COMPOUND: CCOC(=O)/C(=C\c1ccnc2ccccc12)P(=O)(OCC)OCC
SYSTEM: A549 NSCLC
TGI: 14.7 µM

COMPOUND: COc1cc(/C=C2\N=C(c3ccccc3)N(c3nc4cc(C)c(C)cc4s3)C2=O)cc(OC)c1OC
SYSTEM: A549 NSCLC
TGI: > 100 µM

COMPOUND: CC(NC1=NCCO1)c1cccs1 (centres undefined)
SYSTEM: A549 NSCLC
TGI: > 100 µM

COMPOUND: COC(=O)C1=C([C@H]2COC(C)(C)O2)[C@H]2C[C@@H]1[C@@H]1OC(C)(C)O[C@@H]12
SYSTEM: A549 NSCLC
TGI: > 100 µM

COMPOUND: O=C1N[C@H]2C(=O)c3c(Cl)sc(Cl)c3[C@H]2O1
SYSTEM: A549 NSCLC
TGI: 40 µM

COMPOUND: O=C1c2ccc3c4c(ccc(c24)C(=O)N1CCCNCc1ccccc1)C(=O)N(CCCNCc1ccccc1)C3=O
SYSTEM: A549 NSCLC
TGI: 0.365 µM

COMPOUND: COc1ccc(/C=N/NC(=O)c2ccccc2Nc2ccccc2C(=O)N/N=C/c2ccc(OC)cc2)cc1
SYSTEM: A549 NSCLC
TGI: > 100 µM

COMPOUND: N.N.N.N.N.N#N.[Cl-].[Os+7]
SYSTEM: A549 NSCLC
TGI: > 100 µM

COMPOUND: Cc1ccc(/C=N/NS(=O)(=O)c2ccccc2)cc1
SYSTEM: A549 NSCLC
TGI: > 100 µM

COMPOUND: CN(C)/N=C1\C=C2CC[C@H](O[Si](C)(C)C(C)(C)C)[C@@]2(C)CC1
SYSTEM: A549 NSCLC
TGI: 34.8 µM

COMPOUND: CCOC(=O)c1c(C)noc1/N=N/N(CCO)CCO
SYSTEM: A549 NSCLC
TGI: > 100 µM

COMPOUND: CCc1nc(-n2c(CC)nc3ccccc3c2=O)nc(N)c1-c1ccc(Cl)cc1
SYSTEM: A549 NSCLC
TGI: > 100 µM

COMPOUND: COc1ccc(N2CCN(CN3CCN(c4ccc(OC)cc4)C3)C2)cc1
SYSTEM: A549 NSCLC
TGI: > 100 µM

COMPOUND: CC(C)(C)OC(=O)NNC(=O)C1Cc2ccccc2OC1=O (centres undefined)
SYSTEM: A549 NSCLC
TGI: > 100 µM

COMPOUND: CC(=O)c1cccc(Nc2c3ccccc3nc3occc23)c1
SYSTEM: A549 NSCLC
TGI: > 100 µM

COMPOUND: N#Cc1c(N)c2c(c(-c3ccccc3)c1-c1ccccc1)C(=O)N(Nc1ccccc1)C2=O
SYSTEM: A549 NSCLC
TGI: > 100 µM

COMPOUND: C=CCC(N[C@@H](CO)c1ccccc1)c1ccccn1 (some centres undefined)
SYSTEM: A549 NSCLC
TGI: > 100 µM

COMPOUND: Cc1cc(S(N)(=O)=O)c(S/C(=N\Nc2ccc([N+](=O)[O-])cc2)c2ccc(O)cc2)cc1Cl
SYSTEM: A549 NSCLC
TGI: 29.6 µM

* * *

Overview of recorded TGI for various compounds
System: MDA-N
EXPERIMENTAL DETAILS: NCI tumour cell line growth inhibition, 48 h

COMPOUND: O=S(Nc1ccccc1)c1ccc(-c2ccccc2)cc1 (stereo not drawn)
TGI: > 100 µM
//
COMPOUND: CCCC(=O)OCC1(CO)C/C(=C/CC(C(C)C)C(C)C)C(=O)O1 (stereo not drawn)
TGI: > 100 µM
//
COMPOUND: c1ccc(CN2CCCN3CCN(CCCN(Cc4ccccc4)CC3)CC2)cc1
TGI: > 100 µM
//
COMPOUND: CN(C)/N=C1\C=C2CC[C@H](O[Si](C)(C)C(C)(C)C)[C@@]2(C)CC1
TGI: 41.4 µM
//
COMPOUND: OC1CSCCCSCCSCCCSC1
TGI: > 100 µM
//
COMPOUND: CCNc1nc(N)c(C(=O)c2cccs2)s1
TGI: > 100 µM
//
COMPOUND: COc1ccc2c(c1)CCC(CN1CCN(CCOC(c3ccc(F)cc3)c3ccc(F)cc3)CC1)C2O (stereo not drawn)
TGI: 29.7 µM
//
COMPOUND: Cc1ccc(P(c2ccc(C)cc2)c2ccc(C)cc2)cc1
TGI: 55.8 µM
//
COMPOUND: Cc1ccc(S(=O)(=O)NC(=O)NC(C(=O)O)C(C)O)cc1 (stereo not drawn)
TGI: > 100 µM
//
COMPOUND: C=C1CC23CCC4C(C)(C(=O)O)CCCC4(C)C2CCC1C3 (stereo not drawn)
TGI: > 100 µM
//
COMPOUND: Nc1nc(N)c2ncn(-c3ccc(Cl)c(Cl)c3)c2n1
TGI: > 100 µM
//
COMPOUND: C=C1C(=O)OC2/C=C(\C)C(=O)CC3OC(C)(C)OC3(C)CC(OC(=O)/C(C)=C/C)C12 (stereo not drawn)
TGI: > 80.5 µM
//
COMPOUND: Clc1ccccc1-c1nc(-c2ccncc2)no1
TGI: > 100 µM

* * *

Overview of recorded TGI for various compounds
Tested on: SNB-19 CNS
EXPERIMENTAL DETAILS: NCI tumour cell line growth inhibition, 48 h
ATTRIBUTE MEASURED: TGI

COMPOUND: O=[N+]([O-])c1ccc(/C=N\Nc2ccc([N+](=O)[O-])cn2)cc1
OBSERVED: > 100 µM
//
COMPOUND: O=[N+]([O-])c1cccc(/C=C/c2ccccn2)c1
OBSERVED: > 100 µM
//
COMPOUND: Nc1ccc2ncc(Nc3ccc(F)cc3)nc2c1
OBSERVED: > 100 µM
//
COMPOUND: CCOC(=O)/C(=C/c1ccccc1)C(=O)c1ccccc1
OBSERVED: 20.7 µM
//
COMPOUND: Brc1cccc(Nc2ncnc3sc4c(c23)CCC(Nc2cccc(Br)c2)C4)c1 (stereo not given)
OBSERVED: > 100 µM
//
COMPOUND: COc1ccc(S(=O)(=O)NC2=NCCN2C(=S)SN2CCn3c2nsc3=S)cc1OC
OBSERVED: > 100 µM
//
COMPOUND: CCOC(=O)CCSS(=O)(=O)C(F)(F)F
OBSERVED: > 100 µM
//
COMPOUND: Cc1ccc(Nc2[nH]c(C(=O)c3ccc(Cl)cc3)c(N)c2C(=S)Nc2ccccc2)nc1
OBSERVED: > 100 µM
//
COMPOUND: CCN(CC)C(=S)SC(=S)N(CC)CC
OBSERVED: > 100 µM
//
COMPOUND: CCc1nc(-n2c(CC)nc3ccccc3c2=O)nc(N)c1-c1ccc(Cl)cc1
OBSERVED: > 100 µM
//
COMPOUND: CN(C)Cc1cc(N=Nc2ccccc2Cl)ccc1O
OBSERVED: > 100 µM
//
COMPOUND: COc1cc(/C=C/C=C2\CCC/C(=C\C=C\c3ccc(O)c(OC)c3)C2=O)ccc1O
OBSERVED: > 100 µM
//
COMPOUND: OC12CC3c4ccccc4NC3C3Oc4cccc5c4C31CCN(CC1CC1)C2C5 (stereo not given)
OBSERVED: 36.8 µM
//
COMPOUND: COc1nc2c(cc1S(=O)(=O)c1ccccc1)CCc1c-2cnn1Cc1ccccc1
OBSERVED: > 100 µM
//
COMPOUND: C[n+]1c2ccccc2c(C(=O)NC(CCCN=C(N)N)C(=O)O)c2ccccc21 (stereo not given)
OBSERVED: > 100 µM
//
COMPOUND: COc1cc(/C=C2\N=C(c3ccccc3)N(c3nc4cc(C)c(C)cc4s3)C2=O)cc(OC)c1OC
OBSERVED: > 100 µM
//
COMPOUND: Clc1ccccc1-c1nc(-c2ccncc2)no1
OBSERVED: > 100 µM
//
COMPOUND: COc1ccc2nc3ccccc3c(NCCCCCN(CCCl)CCCl)c2c1
OBSERVED: 0.914 µM
//
COMPOUND: CC1(C)C(=O)N(O)C(C)(C)N1N=O
OBSERVED: > 10 µM
//
COMPOUND: O=C1NC2(CCCC2)/C(=N\O)C12CCCC2
OBSERVED: > 100 µM
//
COMPOUND: CC(C)(C)CC(C)(C)N(CSc1ccc(Cl)cc1)CSc1ccc(Cl)cc1
OBSERVED: 19.9 µM
//
COMPOUND: CN/C=C(/c1ccc(OC)cc1)C(O)c1ccc(OC)c(OC)c1 (stereo not given)
OBSERVED: > 100 µM
//
COMPOUND: Cc1cc(C(=O)N[C@@H](CCC(=O)O)C(=O)O)sc1CC[C@@H]1CNc2nc(N)[nH]c(=O)c2C1
OBSERVED: > 100 µM
//
COMPOUND: COc1ccc(/C=N/NC(=O)c2ccccc2Nc2ccccc2C(=O)N/N=C/c2ccc(OC)cc2)cc1
OBSERVED: > 100 µM
//
COMPOUND: CC(C)(C)OC(=O)N1CC(Cn2cc(C(F)(F)F)c3c(Cl)ncnc32)C1
OBSERVED: 3.33 µM
//
COMPOUND: CN(C)CCNC(=O)c1cccc2ccc(-c3cccnc3)nc12
OBSERVED: 22.6 µM
//
COMPOUND: Cc1cc(Nc2cc(CN3CCOCC3)c3nc(C)c(Cc4ccc(Cl)cc4F)n3n2)n[nH]1
OBSERVED: 19 µM
//
COMPOUND: O=C1c2ccc3c4c(ccc(c24)C(=O)N1CCCNCc1ccccc1)C(=O)N(CCCNCc1ccccc1)C3=O
OBSERVED: 0.314 µM
//
COMPOUND: CCN1/C(=C/C=C/C=C/c2sc3ccccc3[n+]2CC)Sc2ccccc21
OBSERVED: 1.89 µM
//
COMPOUND: OC(Cc1ccccc1)(Cc1ccccc1)c1ccccc1
OBSERVED: 67.9 µM
